B1: NF2 (merlin) isoform 7, human, full length (507 aa, lacks exons 2-3 = isoform-1 residues 39-121; exon-16 C-terminus), P35240-4 (parent)
chain: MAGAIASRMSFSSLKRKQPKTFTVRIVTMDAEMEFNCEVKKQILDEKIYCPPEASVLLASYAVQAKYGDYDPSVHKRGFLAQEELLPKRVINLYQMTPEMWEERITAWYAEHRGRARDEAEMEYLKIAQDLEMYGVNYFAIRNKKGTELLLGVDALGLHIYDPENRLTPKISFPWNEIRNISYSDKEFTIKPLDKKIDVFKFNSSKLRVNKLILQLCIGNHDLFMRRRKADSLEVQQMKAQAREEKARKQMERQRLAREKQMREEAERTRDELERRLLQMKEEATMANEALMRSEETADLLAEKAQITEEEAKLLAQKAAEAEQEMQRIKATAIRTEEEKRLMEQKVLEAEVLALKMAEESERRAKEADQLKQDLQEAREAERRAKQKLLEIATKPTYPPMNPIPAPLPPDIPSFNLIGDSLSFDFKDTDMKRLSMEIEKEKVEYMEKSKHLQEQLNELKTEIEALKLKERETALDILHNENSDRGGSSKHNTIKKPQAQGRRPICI

# Variants of: B1
# assay.overview: reverse yeast two-hybrid deep mutational scan (rY2H-seq): NF2 isoform 7 mutant library as bait mated with wild-type prey strains; selection on medium lacking adenine for non-interacting pairs; NextSeq paired-end sequencing; enrichment vs …
# stated.conditions: with NF2 C-terminal domain (wild type; homomeric NF2-NF2 interaction), P35240; yeast diploids after mating (RBait_S3 x RPrey_S3), 30 °C, selection for reporter genes on NB agar; human ABL2 co-expressed as the kinase-dead K35M mutant …; HIGHER = WEAKER BINDING (the opposite of display enrichments): higher = stronger loss of interaction: reverse Y2H selects yeast in which bait and prey do NOT interact (growth without adenine), so a …; hits-only table; partner unresolved; scale: rY2H score; numbering: uniprot, sequence starts at 1
measurement.name: enrichment

[[record]]
variant = "L301E"
measurement_name = "enrichment"
observed_value = 3.42

[[record]]
variant = "H159S"
measurement_name = "enrichment"
observed_value = 18

[[record]]
variant = "A381T"
measurement_name = "enrichment"
observed_value = 1.6

[[record]]
variant = "E177L"
measurement_name = "enrichment"
observed_value = 5.54

[[record]]
variant = "E325L"
measurement_name = "enrichment"
observed_value = 3.02


[I] R248L
[II] E164A
Hi there, can you help? I need to know whether I or II has lower measured enrichment. Response format: the label of the selected entry.
II

[A] G114A
[B] L375K
For the two items A and B , which reports the higher enrichment value? Response format: the label of the selected entry.
B
(B: 6.66, A: 2.02)

[a] L300C
[b] T308E
Hi there, can you help? I need to know whether a or b has lower measured enrichment. Response format: the label of the selected entry.
a
